# Assay Method Text: NCI Yeast Anticancer Drug Screen. Data for the bub3 strain (AID 167)
# Experimental Conditions: S. cerevisiae bub3 mutant strain, at 50.0 µM (retest, dose inferred, filed as 5.0)
About 79,000 compounds went through this panel and 15% of them were active in at least one assay; those are over-represented in the sample as a whole. Active and inactive are the calls of the source. Cut-off read from the data, not from the text of the source: active = growth inhibition above about 70%; inactive = the rest.
Labels: active, inactive

{"Compound": "CCCCCC(C)(O)C#CC(C)(O)CCCCC (configuration not stated)", "Category Label": "active"}
{"Compound": "O=C1C=CC(=O)N1CCCCCCN1C(=O)C=CC1=O", "Category Label": "active"}
{"Compound": "COc1c(OC)c(C2(O)C(=O)N(C)c3ccccc32)c(OC)c(OC)c1C1(O)C(=O)N(C)c2ccccc21 (configuration not stated)", "Category Label": "inactive"}
{"Compound": "COc1ccc2c3c(ccc2c1)NC(C(=O)O)CC3 (configuration not stated)", "Category Label": "active"}
{"Compound": "CC(C)C1=CC23CCC4C(C)(C(=O)O)CCCC4(C)C2CC1C1C(=O)C=CC(=O)C13 (configuration not stated)", "Category Label": "active"}
{"Compound": "NC(C(=O)O)C1=CCCCCC1 (configuration not stated)", "Category Label": "active"}
{"Compound": "Clc1ccc(-c2nnn3ccccc23)cc1", "Category Label": "inactive"}
{"Compound": "Cc1ccc(S)c(S)c1", "Category Label": "active"}
{"Compound": "CC(C)NCCCNc1nc(NCCCNC(C)C)c2nc(-c3ccccc3)c(-c3ccccc3)nc2n1", "Category Label": "inactive"}
{"Compound": "Clc1ccccc1/C=C/c1ccccn1", "Category Label": "inactive"}
{"Compound": "CN(C)CC(CN(C)C)C(=O)c1ccc(Oc2ccc(Cl)cc2)cc1", "Category Label": "active"}
{"Compound": "Cc1c2ccncc2c(C)c2c1[nH]c1ccc(OCCN(C)C)cc12", "Category Label": "inactive"}
{"Compound": "CCCCOc1ccc(NC(=S)Nc2ccc(OCCN(CC)CC)cc2)cc1", "Category Label": "inactive"}
{"Compound": "CC(CN1CCCCCCC1)C(c1ccccc1)c1ccccc1 (configuration not stated)", "Category Label": "active"}
{"Compound": "CCCCC(O)(c1ccc2nc(NC(=O)OC)[nH]c2c1)c1cccs1 (configuration not stated)", "Category Label": "inactive"}
{"Compound": "COc1ccc2c(c1)CN([C@@H](C)[C@H]1CC[C@H]3[C@@H]4CC[C@H]5C[C@@H](O)CC[C@]5(C)[C@H]4CC[C@]13C)CO2", "Category Label": "active"}
{"Compound": "CCCCCCCCCCC[n+]1ccc(C#N)cc1", "Category Label": "active"}
{"Compound": "CCS(=O)(=O)c1ccc(NC(=O)OC2CCCCCCC2)cc1", "Category Label": "inactive"}
{"Compound": "CCOc1ccc2nc3cc(Cl)ccc3[n+](C)c2c1", "Category Label": "active"}
{"Compound": "O=S(=O)(O)C(O)c1ccc2ccc3cccc4ccc1c2c34 (configuration not stated)", "Category Label": "active"}
{"Compound": "CC(=O)Oc1ccc2c(c1)CCC1C2CCC2(C)C1CCC21CO1 (configuration not stated)", "Category Label": "inactive"}
{"Compound": "CC(C)S(=O)(=O)ON1C(=O)c2ccc(N(C)C)cc2C1=O", "Category Label": "inactive"}
{"Compound": "Cc1ccc(C)c(N2C/C(=N\\NC(=O)CC#N)C(c3nc4ccccc4s3)C(=O)C2=O)c1 (configuration not stated)", "Category Label": "inactive"}
{"Compound": "O=C1c2ccccc2C(O)(c2ccccc2)c2c(Cl)cccc21 (configuration not stated)", "Category Label": "inactive"}
{"Compound": "Cc1ccc(S(=O)(=O)CC2COC(CS(=O)(=O)c3ccc(C)cc3)CO2)cc1 (configuration not stated)", "Category Label": "inactive"}
{"Compound": "Cc1ccc(NC(=S)SCc2ccco2)cc1Cl", "Category Label": "active"}
{"Compound": "CC(O)(CO)CC(C)(O)CO (configuration not stated)", "Category Label": "inactive"}
{"Compound": "CCOC(=O)N1c2ccc3ccccc3c2C=CC1C#N (configuration not stated)", "Category Label": "inactive"}
{"Compound": "COC(=O)c1ccccc1NC(=S)NN(C)C", "Category Label": "inactive"}
{"Compound": "CCC(C)Sc1nc2c([nH]1)c(=S)n(C)c(=O)n2C (configuration not stated)", "Category Label": "inactive"}
{"Compound": "O=C1CNC(=O)c2cc(N=Cc3cc(Br)ccc3O)ccc2N1", "Category Label": "active"}
{"Compound": "COc1ccc(OC(C)=O)c2c1CCC=CC2=O", "Category Label": "active"}
{"Compound": "C/C(=N\\OC(=O)c1ccccc1)[N+](=O)[O-]", "Category Label": "active"}
{"Compound": "Cc1cc(Cc2cccc(Cl)c2)ccc1O", "Category Label": "active"}
{"Compound": "CCCCCCOC(=O)CCC(=O)OCCCCCC", "Category Label": "inactive"}
{"Compound": "CC1=CC2N(C=C1)C(c1ccccc1)=NON2c1cc(C)ccn1 (configuration not stated)", "Category Label": "inactive"}
{"Compound": "Cc1ccc(NC(=S)SCc2ccc3c(c2)OCO3)cc1Br", "Category Label": "active"}
{"Compound": "Cn1cnc2[nH]c(Cl)nc(=S)c21", "Category Label": "inactive"}
{"Compound": "CC(C)[C@@H]1CC[C@@H](C)C[C@H]1OC(=O)NN", "Category Label": "active"}
{"Compound": "COC(=O)C1=CCC[C@H]2C1(C)CCC(C)C21CC(c2ccoc2)OC1=O (some centres not stated)", "Category Label": "active"}
{"Compound": "NC1NCCC(=O)N1CCc1c[nH]c2ccccc12 (configuration not stated)", "Category Label": "active"}
{"Compound": "O=C1C2C3C=CC(C3)C2C(=O)C2C3C=CC(C3)C12 (configuration not stated)", "Category Label": "active"}
{"Compound": "CNCCN[C@@H]1c2cc3c(cc2[C@@H](c2cc(OC)c(O)c(OC)c2)[C@H]2C(=O)OC[C@@H]21)OCO3", "Category Label": "active"}
{"Compound": "CC1=NN(c2ccccc2)C(=O)C12[C@H](c1ccccc1)C2(C#N)C#N (some centres not stated)", "Category Label": "active"}
{"Compound": "CC(=O)N1C/C(=C\\c2ccccc2)C(=O)/C(=C/c2ccccc2)C1", "Category Label": "active"}
{"Compound": "O=C(O)c1ccc2ccccc2c1C(=O)c1cccc2ccccc12", "Category Label": "inactive"}
{"Compound": "O=C1C(CN2CCCC2)C(O)=C(c2ccccc2)N1c1ccccc1 (configuration not stated)", "Category Label": "inactive"}

====

# Assay Method Text: NCI Yeast Anticancer Drug Screen. Data for the cln2 rad14 strain (AID 165);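 note: 0% = growth equal to vehicle treated cultures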
# Experimental Conditions: S. cerevisiae cln2 rad14 strain, at 50.0 µM, stronger effect = higher value
Compounds without any hit were thinned out: in the full panel of roughly 79,000, 15% have a hit.
Readings of growth inhibition for the listed molecules
Property Name: growth inhibition (%)

{"Molecule": "CCCCCCCCN(CCCCCCCC)Cc1ccc(Br)cc1", "Property Name": "growth inhibition", "Value": 99}
{"Molecule": "C=CCOC(=O)C(O)C(CC)CCCCC (configuration not stated)", "Property Name": "growth inhibition", "Value": 80.2}
{"Molecule": "O=Cc1ccc(-c2nccc3c2[nH]c2ccccc23)o1", "Property Name": "growth inhibition", "Value": 16.1}
{"Molecule": "C=C1C(=O)OC2C1CCC(=C)C1CC(O)C(=C)C12 (configuration not stated)", "Property Name": "growth inhibition", "Value": 92.4}
{"Molecule": "CCOC(=O)c1ccc(O)c(OC)c1", "Property Name": "growth inhibition", "Value": -13.8}
{"Molecule": "CC(C)N1C(=O)c2ccccc2S1(Cl)c1ccccc1 (configuration not stated)", "Property Name": "growth inhibition", "Value": 88.2}
{"Molecule": "CCS(=O)(=O)c1ccc(NC(=O)OC2CCCCCCC2)cc1", "Property Name": "growth inhibition", "Value": 88.8}
{"Molecule": "CCOC(=O)c1[nH]cnc1/N=N/c1nc(O)c(C#N)[nH]1", "Property Name": "growth inhibition", "Value": 0.85}
{"Molecule": "O=C1C=CC(=O)c2nc3ccccc3nc21", "Property Name": "growth inhibition", "Value": -16.7}
{"Molecule": "CCCCCCCCCCCCCCCCOCC(Cl)COP(=O)(O)OP(=O)(O)OCC1OC(n2cc(C)c(=O)[nH]c2=O)CC1O (configuration not stated)", "Property Name": "growth inhibition", "Value": 63.1}
{"Molecule": "Cc1cccc(C)c1NC(=O)CSC(N)=O", "Property Name": "growth inhibition", "Value": 56.1}
{"Molecule": "O=C1CCC(Cc2ccc(C(F)(F)F)cc2)C(=O)N1 (configuration not stated)", "Property Name": "growth inhibition", "Value": -42.7}

// data source = PubChem BioAssay (NCI)
